All figures here come from PubChem BioAssay AID2060885.

test system: NCI-H23 complex spheroids with HUVEC/MSC, viability; experiment: Anticancer human tumor NCI-H23 cell line growth inhibition [RAS]; conditions: second compound 0.3 µM; first compound 0.0316 µM; hits give low values;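 note: spheroids exposed to compound for 7 days; 100% = DMSO vehicle control viability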
MEASUREMENT_LABEL: viability, T/C

These solved cases illustrate the format of a correct answer.
>>> observed_measurement("CCN1CCN(Cc2ccc(Nc3ncc(F)c(-c4cc(F)c5nc(C)n(C(C)C)c5c4)n3)nc2)CC1 + CCn1c(-c2cc(N3CCN(C)CC3)cnc2C(C)OC)c2c3cc(ccc31)-c1csc(n1)CC(NC(=O)C1CC1C)C(=O)N1CCCC(N1)C(=O)OCC(C)(C)C2")
"12.8%"
>>> observed_measurement("CC(Nc1ccc2c(c1)OCCn1cc(N3C(=O)OCC3C(F)F)nc1-2)C(N)=O (stereo unspecified) + CCn1c(-c2cccnc2C(C)OC)c2c3cc(ccc31)N1CCOC(CC(NC(=O)C(C(C)C)N(C)C(=O)C3(F)CCN(C(=O)C#CC(C)(C)N(C)C)CC3)C(=O)N3CCCC(N3)C(=O)OCC(C)(C)C2)C1")
"22.4%"

List reported viability, T/C for each of these compounds:
1. Cc1nc(N2CCC3(CC2)COC(C)C3N)c(CO)nc1Sc1ccnc(N)c1Cl (stereo unspecified) + CCn1c(-c2cccnc2C(C)OC)c2c3cc(ccc31)N1CCOC(CC(NC(=O)C(C(C)C)N(C)C(=O)C3(F)CCN(C(=O)C#CC(C)(C)N(C)C)CC3)C(=O)N3CCCC(N3)C(=O)OCC(C)(C)C2)C1
2. CC1(O)CCCC1n1c(=O)c(C(F)F)cc2cnc(NC3CCN(S(C)(=O)=O)CC3)nc21 (stereo unspecified) + CCn1c(-c2cccnc2C(C)OC)c2c3cc(ccc31)N1CCOC(CC(NC(=O)C(C(C)C)N(C)C(=O)C3(F)CCN(C(=O)C#CC(C)(C)N(C)C)CC3)C(=O)N3CCCC(N3)C(=O)OCC(C)(C)C2)C1
3. NC1c2ccccc2OC12CCN(c1cnc3c(N4CCCc5ncccc54)n[nH]c3n1)CC2 (stereo unspecified) + CCn1c(-c2cc(N3CCN(C)CC3)cnc2C(C)OC)c2c3cc(ccc31)-c1csc(n1)CC(NC(=O)C1CC1C)C(=O)N1CCCC(N1)C(=O)OCC(C)(C)C2

output:
["20%", "19.5%", "11%"]

input: Lab note: need viability, T/C for CC(=O)OC12COC1CC(O)C1(C)C(=O)C(O)C3=C(C)C(OC(=O)C(O)C(NC(=O)OC(C)(C)C)c4ccccc4)CC(O)(C(OC(=O)c4ccccc4)C21)C3(C)C (stereo unspecified) + CCn1c(-c2cc(N3CCN(C)CC3)cnc2C(C)OC)c2c3cc(ccc31)-c1csc(n1)CC(NC(=O)C1CC1C)C(=O)N1CCCC(N1)C(=O)OCC(C)(C)C2 on NCI-H23 complex spheroids with HUVEC/MSC, viability, anyone have it?
output: 10.1%

----------
System: NCI-H23 complex spheroids with HUVEC/MSC, viability
Assay: Anticancer human tumor NCI-H23 cell line growth inhibition [RAS];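 note: spheroids exposed to compound for 7 days; 100% = DMSO vehicle control viability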
Details: second compound 0.03 µM; first compound 0.000949 µM; hits give low values
Description: RAS pathway inhibitors in Combinations in Complex Spheroids A high-throughput screen of multi-cell type tumor spheroids was designed to identify active combinations of RAS pathway inhibitors and targeted small molecules. Complex spheroids include a stromal component modeled by human endothelial cells (HUVEC) and fibroblasts modeled by human mesenchymal stem cells (MSCs). […] Compounds. […] If the clinical Cmax for an agent had not been determined, the highest concentration tested was 10 microM. […]
MEASUREMENT_LABEL: viability, T/C (%)
Numbers only, in %.

Reference set (3 entries):
>>> observed_measurement("CCc1c2c(nc3ccc(O)cc13)-c1cc3c(c(=O)n1C2)COC(=O)[C@]3(O)CC + CCn1c(-c2cc(N3CCN(C)CC3)cnc2C(C)OC)c2c3cc(ccc31)-c1csc(n1)CC(NC(=O)C1CC1C)C(=O)N1CCCC(N1)C(=O)OCC(C)(C)C2")
20.6
>>> observed_measurement("CC1(C)CCC(Nc2ncc(C(F)(F)F)c(-c3c[nH]c4c(P(C)(C)=O)c(C#N)ccc34)n2)CN1 (centres undefined) + CCn1c(-c2cc(N3CCN(C)CC3)cnc2C(C)OC)c2c3cc(ccc31)-c1csc(n1)CC(NC(=O)C1CC1C)C(=O)N1CCCC(N1)C(=O)OCC(C)(C)C2")
17.6
>>> observed_measurement("CCc1c2c(nc3ccc(O)cc13)-c1cc3c(c(=O)n1C2)COC(=O)[C@]3(O)CC + CCn1c(-c2cccnc2C(C)OC)c2c3cc(ccc31)N1CCOC(CC(NC(=O)C(C(C)C)N(C)C(=O)C3(F)CCN(C(=O)C#CC(C)(C)N(C)C)CC3)C(=O)N3CCCC(N3)C(=O)OCC(C)(C)C2)C1")
25.5

input: Reported viability, T/C, compound CC1(C)CCC(Nc2ncc(C(F)(F)F)c(-c3c[nH]c4c(P(C)(C)=O)c(C#N)ccc34)n2)CN1 (centres undefined) + CCn1c(-c2cccnc2C(C)OC)c2c3cc(ccc31)N1CCOC(CC(NC(=O)C(C(C)C)N(C)C(=O)C3(F)CCN(C(=O)C#CC(C)(C)N(C)C)CC3)C(=O)N3CCCC(N3)C(=O)OCC(C)(C)C2)C1 : ____
output: 21.9
